Measured T/C values are reported for all entries that follow.
# Test system: L1210 leukemia ip in BDF1 mice, survival T/C
# experiment: NCI In Vivo Anticancer Drug Screen. Data for tumor model L1210 Leukemia (intraperitoneal) in B6D2F1 (BDF1) mice
# experimental.setup: endpoint: mean survival time; dose: 200.0 mg/kg/injection; schedule: Q01DX001 (ip); vehicle: saline; higher = longer survival
Toxic doses and inconclusive results are not listed.

| compound | assayed.target | T/C |
| --- | --- | --- |
| Nc1ccc(N=Nc2ccc(OCCN(CCO)CCO)cc2)c(N)n1 | L1210 leukemia ip in BDF1 mice, survival T/C | 98 % of control |
| CNC(=S)SC | L1210 leukemia ip in BDF1 mice, survival T/C | 96 % of control |
| COc1ccc(OC)c2c(C)cc(Cl)nc12 | L1210 leukemia ip in BDF1 mice, survival T/C | 98 % of control |
| COc1ccc2[nH]c3c(C)c4c(c(C)c3c2c1)CN(C)CC4 | L1210 leukemia ip in BDF1 mice, survival T/C | 100 % of control |
| CC(CCc1ccc2sc3ccccc3c2c1)C(N)=O (stereo not drawn) | L1210 leukemia ip in BDF1 mice, survival T/C | 92 % of control |

Lab note: measured T/C of CCOC(=O)N/N=C/c1cccs1 was 96 % of control

Lab note: measured T/C of O=C(O)C(O)Cc1ccc(O)cc1 (stereo not drawn) was 92 % of control

Lab note: measured T/C of N#CCc1ccc(N=Nc2c(N)nc(N)[nH]c2=O)cc1 was 96 % of control

Lab note: measured T/C of O=C(O)c1ccc(F)cc1O was 109 % of control

Lab note: measured T/C of Sc1cccc2cccnc12.[Ni] was 98 % of control

Lab note: measured T/C of CCC(CC)C(O)(C(=O)O)C(CC)CC was 89 % of control

Lab note: measured T/C of CNS(C)(=O)=O was 106 % of control

====

# Test system: L1210 leukemia ip in BDF1 mice, survival T/C
# experiment: NCI In Vivo Anticancer Drug Screen. Data for tumor model L1210 Leukemia (intraperitoneal) in B6D2F1 (BDF1) mice
# experimental.setup: endpoint: mean survival time; dose: 25.0 mg/kg/injection; schedule: Q01DX009 (ip); vehicle: saline with Tween-80; higher = longer survival
Toxic doses and inconclusive results are not listed.
endpoint: T/C

| compound | assayed.target | T/C |
| --- | --- | --- |
| Cc1c(O)ccc([N+](=O)[O-])c1O | L1210 leukemia ip in BDF1 mice, survival T/C | 97 % of control |
| C[N+](C)(C)C1(Cc2ccc(F)cc2)c2ccccc2-c2ccccc21 | L1210 leukemia ip in BDF1 mice, survival T/C | 88 % of control |
| CC(=O)OCC1OC(OC2C(COC(C)=O)OC(Sc3ccccc3)C(OC(C)=O)C2OC(C)=O)C(OC(C)=O)C(OC(C)=O)C1OC(C)=O (stereo not drawn) | L1210 leukemia ip in BDF1 mice, survival T/C | 90 % of control |
| O=C(O)C(Br)C(Br)C(=O)Nc1cccc2ccccc12 (stereo not drawn) | L1210 leukemia ip in BDF1 mice, survival T/C | 97 % of control |

Value sought: T/C, system L1210 leukemia ip in BDF1 mice, survival T/C, item N#C/C(=C\c1ccc(-c2ccccc2)cc1)c1ccccc1 . Result: 87 % of control

Value sought: T/C, system L1210 leukemia ip in BDF1 mice, survival T/C, item c1ccc(C2=NCCCO2)cc1 . Result: 103 % of control
